FYI, the data here is from paper PMC8878748.

Assay method text: MTT cytotoxicity assay on Vero cells
Type: cell-based
Setup conditions: MTT, calculated after 2 h of peptide treatment
Where a SMILES comes first, the peptide text is derived from it. [ ]: non-standard residue; d: D form. The star is where a group is joined. Pentadecanoyl = CCCCCCCCCCCCCCC(=O)*; Hyp = O=C(O)[C@@H]1C[C@@H](O)CN1; dHyp = O=C(O)[C@H]1C[C@H](O)CN1; dNle = CCCC[C@@H](N)C(=O)O; Nle = CCCC[C@H](N)C(=O)O
Property: CC50 (µM)

{"Molecule": "CCCC[C@@H](NC(=O)[C@@H](CC(C)C)NC(=O)[C@H](Cc1ccccc1)NC(=O)[C@H](CCCCN)NC(=O)[C@H](CO)NC(=O)[C@H](Cc1ccccc1)NC(=O)[C@H](Cc1c[nH]c2ccccc12)NC(=O)[C@@H]1CCCN1C(=O)[C@@H](NC(=O)[C@@H](N)Cc1ccccc1)C(C)C)C(=O)N[C@@H](CCCNC(=N)N)C(=O)N[C@H](C(=O)N[C@@H](CC(C)C)C(N)=O)[C@@H](C)CC [TL7] (H-FVPWFSKF[dL][dNle]RIL-NH2)", "Bound operator": "=", "Obs value": 32.2}
{"Molecule": "CC[C@H](C)[C@H](NC(=O)[C@H](CCCNC(=N)N)NC(=O)[C@@H]1C[C@@H](O)CN1C(=O)[C@@H](CC(C)C)NC(=O)[C@H](Cc1ccccc1)NC(=O)[C@H](CCCCN)NC(=O)[C@H](CO)NC(=O)[C@H](Cc1ccccc1)NC(=O)[C@H](Cc1c[nH]c2ccccc12)NC(=O)[C@@H]1CCCN1C(=O)[C@@H](NC(=O)[C@@H](N)Cc1ccccc1)C(C)C)C(=O)N[C@@H](CC(C)C)C(N)=O [TL4] (H-FVPWFSKF[dL][Hyp]RIL-NH2)", "Bound operator": "=", "Obs value": 60.2}
{"Molecule": "CC[C@H](C)[C@H](NC(=O)[C@H](CCCNC(=N)N)NC(=O)[C@H]1C[C@H](O)CN1C(=O)[C@@H](CC(C)C)NC(=O)[C@H](Cc1ccccc1)NC(=O)[C@H](CCCCN)NC(=O)[C@H](CO)NC(=O)[C@H](Cc1ccccc1)NC(=O)[C@H](Cc1c[nH]c2ccccc12)NC(=O)[C@@H]1CCCN1C(=O)[C@@H](NC(=O)[C@@H](N)Cc1ccccc1)C(C)C)C(=O)N[C@@H](CC(C)C)C(N)=O [TL5] (H-FVPWFSKF[dL][dHyp]RIL-NH2)", "Bound operator": ">", "Obs value": 100}
{"Molecule": "CCCCCCCCCCCCCCC(=O)N[C@@H](Cc1ccccc1)C(=O)N[C@H](C(=O)N1CCC[C@H]1C(=O)N[C@@H](Cc1c[nH]c2ccccc12)C(=O)N[C@@H](Cc1ccccc1)C(=O)N[C@@H](CO)C(=O)N[C@@H](CCCCN)C(=O)N[C@@H](Cc1ccccc1)C(=O)N[C@H](CC(C)C)C(=O)N[C@@H](CCCC)C(=O)N[C@@H](CCCNC(=N)N)C(=O)N[C@H](C(=O)N[C@@H](CC(C)C)C(N)=O)[C@@H](C)CC)C(C)C [TL6.7] (Pentadecanoyl-FVPWFSKF[dL][Nle]RIL-NH2)", "Bound operator": ">", "Obs value": 100}
